protocol details: clinical
Assay type: in vivo, human
applied conditions: human, in vivo, 6 mg, 6 mg alone; read-out: T1/2, Mean (CV %) (converted)

{"compound": "O=C(O)c1nc2ccccc2n([C@H]2C[C@H]3CCC[C@@H](C2)N3C2CC3CCCC(C3)C2)c1=O (stereo partly shown) [Compound (1C)]", "units of measure": "h", "half-life": 4.5}

====

protocol details: clinical
Assay type: in vivo, human
applied conditions: human, in vivo; all dose levels, days 1 and 16; read-out: mean CLr

{"molecule": "O=C(O)c1nc2ccccc2n([C@H]2C[C@H]3CCC[C@@H](C2)N3C2CC3CCCC(C3)C2)c1=O (stereo partly shown)", "CL renal": "274 to 354 mL/min"}

All values here come from patent US11576913B2.
